System: ACHN renal
Assay: NCI tumour cell line growth inhibition, 48 h
Measured Metric: TGI

1. CCOC(=O)CCC(NC(=O)c1ccc(Nc2nc3ccccc3nc2C(=O)OCC)cc1)C(=O)OCC (stereo not drawn)
11.5 µM
2. Cc1csc(-n2c(C)nc3cc(Cl)ccc3c2=O)n1
> 100 µM
3. CC1C2(C)OCC(C#N)(C(=N)O2)C1(C#N)C#N (stereo not drawn)
> 100 µM
4. CCOC(=O)C(C(=O)COC(C)(C)C)[C@@H]1C=C[C@H](OC(C)=O)C1 (stereo partly drawn)
> 100 µM
5. CC(C)c1ccc(/C=C2\CSCC3=C2N=C2SCC(=O)N2C3c2ccc(C(C)C)cc2)cc1 (stereo not drawn)
> 100 µM
6. CCNC(=S)N/N=C(\C)c1cccc(C)n1
> 100 µM
7. COc1ccc2c(c1)CCC/C2=N\NS(=O)(=O)c1c(C)cc(C)cc1C
> 100 µM
8. CCOC(=O)/C=C/[C@@H](CC)O[Si](C(C)C)(C(C)C)C(C)C
> 100 µM
9. O=C(/C=C/C1C(=O)NC(=O)NC1=O)CC(=O)C(=O)Nc1cc(Cl)c(Cl)cc1Cl
> 100 µM
10. Nc1nc(N)c2c(n1)NC(c1sc(Cl)nc1Cl)CC(c1ccc3c(c1)OCO3)=N2 (stereo not drawn)
26.4 µM
11. CCOc1cc2c(cc1O)C(N)C[C@@H]1[C@@H]2CC[C@]2(C)[C@@H](O)CC[C@@H]12 (stereo partly drawn)
> 100 µM
12. CC(=O)NC(CCCN(Cc1ccccc1)C(=O)N(C)N=O)C(=O)NCc1ccccc1 (stereo not drawn)
> 100 µM
13. CN/N=C(\C(=O)Nc1ccc(C)c(C)c1)C(C(=O)OC)c1nc2ccc([N+](=O)[O-])cc2[nH]c1=O (stereo not drawn)
> 100 µM
14. O=[N+]([O-])/C(C(Cl)=C(Cl)Cl)=C(/Nc1ccccc1)Sc1ccccc1
33.1 µM
15. COCCN1C(=O)C2c3[nH]c4ccccc4c3C3CCC(C(C)(C)C)CC3C2C1=O (stereo not drawn)
> 10 µM
16. O=C(c1ccc2ccccc2c1)c1c(C(F)(F)F)n([O-])c2ccc(F)cc2[n+]1=O
3.04 µM
17. CC(=O)c1sc2[n+](c1C)C(=O)/C(=C\c1ccccc1Cl)S2
36 µM
18. NN/C(=N\S(=O)(=O)c1ccc(S(=O)(=O)c2ccccc2)s1)Nc1ccc(Cl)cc1
> 100 µM
19. CC/C(N)=N\NC(=O)OC(C)(C)C
> 100 µM
20. COc1ccc2c(c1)/C(=N/OC(C)=O)c1c-2cnc2ccccc12
45.4 µM
21. O=C1CC(c2ccccc2)S(=O)c2ccccc2N1 (stereo not drawn)
> 100 µM
22. CC(=O)OCC1OC(n2c(-c3ccccc3)c(N=Nc3ccc(C)cc3)c(C)c(C#N)c2=S)C(OC(C)=O)C(OC(C)=O)C1OC(C)=O (stereo not drawn)
> 100 µM
23. C=C(C)[C@@H]1CC[C@]2(CO)CC[C@]3(C)[C@H](CC[C@@H]4[C@@]5(C)CC[C@H](NCO)C(C)(C)[C@@H]5CC[C@]43C)[C@@H]12
1.65 µM
24. Cc1ccc(/C=C2/N=C(N/N=C\c3ccccc3)NC2=O)cc1
38.4 µM
25. O=S(=O)(O)c1ccc2c(N=Nc3ccc(Sc4ccc(N=Nc5c(O)ccc6cc(S(=O)(=O)O)ccc56)cc4)cc3)c(O)ccc2c1
> 100 µM
26. CC(=O)c1c2c(cc3c1CC1(C3)Cc3cc4c(c(C(=O)O)c3C1)CCC4)CCC2 (stereo not drawn)
> 100 µM
27. Cn1cc(C2=C(c3cn(CCCCC(=N)N)c4ccccc34)C(=O)NC2=O)c2ccccc21
> 25 µM
28. CCCCCCCCCCCCOP(=O)(O)OP(=O)(O)OCC1OC(n2cc(C)c(=O)[nH]c2=O)CC1O (stereo not drawn)
> 100 µM
29. CCCCCCCCCCSC(=N)N
9.33 µM
30. CC(NC(=O)C(Cc1ccc(OC(=O)c2ccccc2)cc1)NC(=O)OC(C)(C)C)C(=O)NCC(=O)NC(Cc1ccccc1)C(=O)NN (stereo not drawn)
> 100 µM
31. C(#Cc1ccccc1)SC1=C(c2ccccc2)S/C(=C(\SC#Cc2ccccc2)c2ccccc2)S1
> 100 µM
32. COc1cc2ccc3ccncc3c2cc1OC
> 10 µM
33. CSCCCNC(=O)[C@H](CSC)NC(=O)c1csc(CCNC(=O)[C@@H](NSc2ccccc2[N+](=O)[O-])C(C)O)n1 (stereo partly drawn)
> 100 µM
34. O=c1cc(N2CCCC2)[nH]c(=O)n1-c1ccc(Cl)cc1
> 100 µM
35. CC(=O)Nc1ccc(-c2nnc(SCC(=O)Nc3ccc(Cl)cc3)o2)cc1
28.5 µM
36. CC(=O)NC1C(OCc2ccccc2)OC(CO)C(O)C1OCC(=O)N[C@@H](C)C(=O)N[C@H](CCC(=O)NCCCNc1ccc([N+](=O)[O-])c2[nH]c3ccccc3c(=O)c12)C(N)=O (stereo partly drawn)
> 100 µM
37. O=S1(=O)c2ccccc2N=C(c2ccccc2Cl)CC1c1ccc(F)cc1 (stereo not drawn)
32.6 µM
38. CCN(CC)Cc1cc(Nc2c3ccccc3nc3cc(Cl)ccc23)ccc1O
2.97 µM
